Listed here are compounds together with their documented MIC.
# Tested on: Acinetobacter baumannii
# testSummary: Antibacterial activity against imipenem-resistant Acinetobacter baumannii abh29 by broth dilution method
# Type: functional

Would you please look over these solved cases?
Input line: MIC lookup needed for CO/N=C(\C(=O)N[C@@H]1C(=O)N2C(C(=O)O)=C(COC(C)=O)CS[C@H]12)c1csc(N)n1 , thanks.
Output line: > 256 µg/mL

Input line: MIC lookup needed for CC(C)(O/N=C(\C(=O)N[C@@H]1C(=O)N2C(C(=O)[O-])=C(C[n+]3ccccc3)CS[C@H]12)c1csc(N)n1)C(=O)O , thanks.
Output line: > 256 µg/mL

// moving on: another record for MIC
Input line: MIC lookup needed for CO/N=C(\C(=O)N[C@@H]1C(=O)N2C(C(=O)[O-])=C(C[N+]3(C)CCCC3)CS[C@H]12)c1csc(N)n1 [CEFEPIME] , thanks.
Output line: 96 µg/mL

###

Listed here are compounds together with their documented MIC.
# Tested on: Acinetobacter baumannii
# testSummary: Antibacterial activity against imipenem-resistant Acinetobacter baumannii abh17 by broth dilution method
# Format: functional

Would you please look over these solved cases?
Input line: MIC lookup needed for C[C@@H](O)[C@H]1C(=O)N2C(C(=O)O)=C(S[C@@H]3CN[C@H](C(=O)N(C)C)C3)[C@H](C)[C@H]12 [MEROPENEM] , thanks.
Output line: 16 µg/mL

Input line: MIC lookup needed for CC(C)(O/N=C(\C(=O)N[C@@H]1C(=O)N2C(C(=O)[O-])=C(C[n+]3ccccc3)CS[C@H]12)c1csc(N)n1)C(=O)O [CEFTAZIDIME] , thanks.
Output line: > 256 µg/mL

Input line: MIC lookup needed for O=C(O)c1cn(C2CC2)c2cc(N3CCNCC3)c(F)cc2c1=O [CIPROFLOXACIN] , thanks.
Output line: > 32 µg/mL

// moving on: another record for MIC
Input line: MIC lookup needed for CCN1CCN(C(=O)N[C@@H](C(=O)N[C@@H]2C(=O)N3[C@@H]2SC(C)(C)[C@@H]3C(=O)O)c2ccccc2)C(=O)C1=O [PIPERACILLIN] , thanks.
Output line: > 256 µg/mL

###

Listed here are compounds together with their documented MIC.
# Tested on: Acinetobacter baumannii
# testSummary: Antibacterial activity against imipenem-resistant Acinetobacter baumannii abh17 by broth dilution method
# Assay type: functional

Would you please look over these solved cases?
Input line: MIC lookup needed for C[C@@H](O)[C@H]1C(=O)N2C(C(=O)O)=C(SCCNC=N)C[C@H]12 [IMIPENEM ANHYDROUS] , thanks.
Output line: 32 µg/mL

Input line: MIC lookup needed for CO/N=C(\C(=O)N[C@@H]1C(=O)N2C(C(=O)O)=C(COC(C)=O)CS[C@H]12)c1csc(N)n1 , thanks.
Output line: > 256 µg/mL

New cases:
Input line: MIC lookup needed for NCC[C@H](O)C(=O)N[C@@H]1C[C@H](N)[C@@H](O[C@H]2O[C@H](CN)[C@@H](O)[C@H](O)[C@H]2O)[C@H](O)[C@H]1O[C@H]1O[C@H](CO)[C@@H](O)[C@H](N)[C@H]1O , thanks.
Output line: > 256 µg/mL
